Entry source: ChEMBL document CHEMBL1149507

Tested on: Bcap37
Assay: Antiproliferative activity against human Bcap37 cell line at 1 uM by MTT assay
Format: functional
assayMetric: inhibition at 1 µM

{"molecule": "COc1cc(C2=NN(C(C)=O)C(c3ccc(Cl)c([N+](=O)[O-])c3)O2)cc(OC)c1OC (stereo not given)", "studyTarget": "Bcap37", "assayMetric": "inhibition at 1 µM", "observedMeasurement": "-2.9%"}
{"molecule": "COc1cc(C(=O)N/N=C/c2ccc(Cl)c(Cl)c2)cc(OC)c1OC", "studyTarget": "Bcap37", "assayMetric": "inhibition at 1 µM", "observedMeasurement": "0.1%"}
{"molecule": "COc1cc(C2=NN(C(C)=O)C(c3ccccc3F)O2)cc(OC)c1OC (stereo not given)", "studyTarget": "Bcap37", "assayMetric": "inhibition at 1 µM", "observedMeasurement": "-1.5%"}
{"molecule": "COc1cc(C(=O)N/N=C/c2ccccc2C(F)(F)F)cc(OC)c1OC", "studyTarget": "Bcap37", "assayMetric": "inhibition at 1 µM", "observedMeasurement": "56.8%"}
{"molecule": "COc1ccc(OC)c(C2OC(c3cc(OC)c(OC)c(OC)c3)=NN2C(C)=O)c1 (stereo not given)", "studyTarget": "Bcap37", "assayMetric": "inhibition at 1 µM", "observedMeasurement": "-3.8%"}
